# Test system: L1210 leukemia ip in BDF1 mice, survival T/C
# Method Summary: NCI In Vivo Anticancer Drug Screen. Data for tumor model L1210 Leukemia (intraperitoneal) in B6D2F1 (BDF1) mice
# Conditions: endpoint: mean survival time; dose: 400.0 mg/kg/injection; schedule: Q04DX003 (ip); vehicle: Klucel (hydroxypropylcellulose) (HPC); higher = longer survival
Inconclusive results and toxic doses are left out.
Quick reference for T/C among some compounds
Measured Property: T/C

O=C(N/N=C(\C=N\NC(=O)c1ccccc1)CC(O)C(O)CO)c1ccccc1 (stereo not given) | 93 % of control
CC(C)(C)OC(=O)C1(C(=O)OC(C)(C)C)C2CCCCC21 (stereo not given) | 96 % of control
COc1ccc2c(c1)CCC1=C2CCC2C(=O)OC(=O)C12C (stereo not given) | 97 % of control
COC(=O)c1ccc(C(F)(F)F)cc1O | 108 % of control
CCOC(=O)C1(C(=O)OCC)CC(=O)c2c(OC)ccc(OC)c2C1 | 111 % of control
CCCCP(=S)(CCCC)N(CC)CC | 93 % of control
N#CSCc1ccccc1 | 94 % of control
O=C1O/C(=C(\C(=O)O)c2ccccc2)C(O)=C1c1ccccc1 | 108 % of control
O=C(O)COc1ccc(F)cc1Cl | 94 % of control
Cc1ccc(C)c(OC(=O)Nc2cccc(C(F)(F)F)c2)c1 | 103 % of control
COc1ccc(CCC(C)=O)cc1 | 98 % of control
COC(=O)C12N=NN(c3ccccc3)C1(C(=O)OC)C1CCC2C1 (stereo not given) | 97 % of control
O=C1NOCC1N=Cc1ccccc1O (stereo not given) | 101 % of control
Cc1cc(N(CCCCl)CCCCl)ccc1C=Nc1cc(Br)c(O)c(Br)c1 | 96 % of control
O=C(c1ccccc1)N(Nc1ccccc1)c1ccccc1 | 98 % of control
